The molecules listed here are annotated with their Papp B→A at 10 µM.
TEST PROTOCOL: Apparent permeability from basolateral to apical side of human Caco2 cells at 10 uM by LC/MS/MS analysis
Type: ADME, cell-based
CONDITION: Caco-2
Entry rule: numbers only, all in ×10⁻⁶ cm/s.

MOLECULE: CC(=O)O[C@H]1C(=O)[C@@]2(C)[C@H]([C@H](OC(=O)c3ccccc3)[C@]3(O)C[C@H](OC(=O)[C@H](O)[C@@H](NC(=O)c4ccccc4)c4ccccc4)C(C)=C1C3(C)C)[C@]1(OC(C)=O)CO[C@@H]1C[C@@H]2O
UNIT ABBREVIATION: ×10⁻⁶ cm/s
Papp B→A at 10 µM: 5.03

INPUT: What value of Papp B→A at 10 µM has been reported for the following molecule? CC(C)NCC(O)COc1cccc2ccccc12 (stereo not given)
OUTPUT: 23.4

INPUT: Given the entry C/C=C(\C)C(=O)N[C@@H](c1ccccc1)[C@@H](O)C(=O)O[C@H]1C[C@@]2(O)[C@@H](OC(=O)c3cccc(N=[N+]=[N-])c3)[C@@H]3[C@]4(OC(C)=O)CO[C@@H]4C[C@H](OC(=O)CN(C)C)[C@@]3(C)C(=O)[C@H](O)C(=C1C)C2(C)C , report its measured Papp B→A at 10 µM.
OUTPUT: 27

INPUT: What does the record list as Papp B→A at 10 µM for C/C=C(\C)C(=O)N[C@@H](c1ccccc1)[C@@H](O)C(=O)O[C@H]1C[C@@]2(O)[C@@H](OC(=O)c3cccc(N=[N+]=[N-])c3)[C@@H]3[C@]4(OC(C)=O)CO[C@@H]4C[C@H](OC(=O)CC)[C@@]3(C)C(=O)[C@H](O)C(=C1C)C2(C)C ?
OUTPUT: 0.265

INPUT: Data request, read-out Papp B→A at 10 µM, for C/C=C(\C)C(=O)N[C@@H](c1ccccc1)[C@@H](O)C(=O)O[C@H]1C[C@@]2(O)[C@@H](OC(=O)c3cccc(N=[N+]=[N-])c3)[C@@H]3[C@]4(OC(C)=O)CO[C@@H]4C[C@H](OC(=O)OCC)[C@@]3(C)C(=O)[C@H](O)C(=C1C)C2(C)C
OUTPUT: 12.6

* * *

TEST PROTOCOL: Binding affinity to purified p-glycoprotein by fluorescence quenching assay
Below: a set of entries, each annotated with reported pKd.
When answering, recall that pKd equals minus log10 of the concentration in mol/L, and write that number alone.

Below: 3 molecules and their reported pKd.
SMI: C/C=C(\C)C(=O)N[C@@H](c1ccccc1)[C@@H](O)C(=O)O[C@H]1C[C@@]2(O)[C@@H](OC(=O)c3cccc(N=[N+]=[N-])c3)[C@@H]3[C@]4(OC(C)=O)CO[C@@H]4C[C@H](OC(=O)CC)[C@@]3(C)C(=O)[C@H](O)C(=C1C)C2(C)C
pKd: 6.30
//
SMI: C/C=C(\C)C(=O)N[C@@H](c1ccccc1)[C@@H](O)C(=O)O[C@H]1C[C@@]2(O)[C@@H](OC(=O)c3cccc(N=[N+]=[N-])c3)[C@@H]3[C@]4(OC(C)=O)CO[C@@H]4C[C@H](OC(=O)OCC)[C@@]3(C)C(=O)[C@H](O)C(=C1C)C2(C)C
pKd: 5.85
//
SMI: C/C=C(\C)C(=O)N[C@@H](c1ccccc1)[C@@H](O)C(=O)O[C@H]1C[C@@]2(O)[C@@H](OC(=O)c3cccc(N=[N+]=[N-])c3)[C@@H]3[C@]4(OC(C)=O)CO[C@@H]4C[C@H](OC(=O)CCl)[C@@]3(C)C(=O)[C@H](O)C(=C1C)C2(C)C
pKd: 5.56

INPUT: Which pKd value belongs to C/C=C(\C)C(=O)N[C@@H](c1ccccc1)[C@@H](O)C(=O)O[C@H]1C[C@@]2(O)[C@@H](OC(=O)c3cccc(N=[N+]=[N-])c3)[C@@H]3[C@]4(OC(C)=O)CO[C@@H]4C[C@H](OC(=O)C4CC4)[C@@]3(C)C(=O)[C@H](O)C(=C1C)C2(C)C ?
OUTPUT: 5.67
